assay: in vivo; conditions: rat, in vivo, iv, Tumor (T), Mean % Injected Dose/Gram, 5 min, male fisher rats with implanted gliosarcoma
reportedMetric: tissue uptake at 5 min (%ID/g)
Give a bare numeral; the unit %ID/g is implied.

Lookup: tissue uptake at 5 min lookup needed for NC1(C(=O)O)CC([18F])C1 (stereo not shown) [[^18 F]FACBC] , thanks.
Found: 0.61

---

assay: in vivo; conditions: rat, in vivo, iv, Testis, Mean % Injected Dose/Gram
reportedMetric: tissue uptake at 5 min
Please make sure the unit comes right after the number.

Lookup: // tissue uptake at 5 min lookup, key: NC1(C(=O)O)CC([18F])C1 (stereo not shown) [[^18 F]FACBC]
Found: 0.25 %ID/g

---

assay: in vivo; conditions: rat, in vivo, iv, Heart, Mean % Injected Dose/Gram
reportedMetric: tissue uptake at 1 h (%ID/g)
Kindly provide the numeric value in %ID/g only, without the unit symbol.

Lookup: Fill in the blank: the reported tissue uptake at 1 h of NC1(C(=O)O)CC([18F])C1 (stereo not shown) [[^18 F]FACBC] is ____.
Found: 0.56

---

experiment: in vivo; details: rat, in vivo, iv, Liver, Mean % Injected Dose/Gram
reportedMetric: tissue uptake at 5 min

Lookup: Entry under review: NC1(C(=O)O)CC([18F])C1 (stereo not shown) [[^18 F]FACBC] . Reported tissue uptake at 5 min?
Found: 1.1 %ID/g
